assay: melting temperature; fluorescence melt of hairpins on a sequencing array, two-state fit, raised by 9.35 °C to match UV melts; settings: sodium 0.088 M
# YES = Tm below 50 °C (exclusive); NO = Tm at/above 50 °C

These solved cases illustrate the format of a correct answer.
API: query returns whether the sequence falls strictly under 50 °C in Tm. Query: GGTCAGAAATGACC (((((....))))) NO

API: query returns whether the sequence falls strictly under 50 °C in Tm. Query: GTTAGAGAAATCTAAC ((((((....)))))) YES

API: query returns whether the sequence falls strictly under 50 °C in Tm. Query: GGTTGCGAAAGCAAGACC ((((((....)))..))) YES

Let us examine a further case.
API: query returns whether the sequence falls strictly under 50 °C in Tm. Query: GATCACACCGGTGATC ((((((....)))))) NO
